# Target System: SaSiaT (Staphylococcus aureus)
# Test Method Notes: nanoDSF thermal shift assay, SaSiaT
# Assay type: binding
# Particulars: SaSiaT, experiment 1, first capillary, 1.25 mM
Decide using Tm 1 alone. Strictly below 50 °C: true. Equal to or above 50 °C: false.

Prompt: # TODO verify Tm 1 < 50 °C strictly for this compound: CC(=O)NC1C(OCc2ccc(Br)cc2)CC(O)(C(=O)O)OC1C(O)C(O)CO (centres unmarked) [Compound 3c]
Response: false

Prompt: Request: CC(=O)NC1C(OCc2ccc(C#N)cc2)CC(O)(C(=O)O)OC1C(O)C(O)CO (centres unmarked) [Compound 3d]
Response: false

Prompt: Request: CCC(=O)NC1C(O)CC(O)(C(=O)O)OC1C(O)C(O)CO (centres unmarked) [Compound 6a]
Response: true

Prompt: Request: CC(=O)NC1C(OCc2ccc(F)cc2)CC(O)(C(=O)O)OC1C(O)C(O)CO (centres unmarked) [Compound 3b]
Response: false

Prompt: Request: CC(C)C(=O)NC1C(O)CC(O)(C(=O)O)OC1C(O)C(O)CO (centres unmarked) [Compound 6b]
Response: true

Prompt: Request: CC(C)(C)C(=O)NC1C(O)CC(O)(C(=O)O)OC1C(O)C(O)CO (centres unmarked) [Compound 6c]
Response: true

Prompt: Request: CC(=O)NC1C(OCc2ccccc2)CC(O)(C(=O)O)OC1C(O)C(O)CO (centres unmarked) [Compound 3a]
Response: false

Prompt: Request: [N-]=[N+]=NCC(=O)N[C@H]1[C@H]([C@H](O)[C@H](O)CO)O[C@@](O)(C(=O)O)C[C@@H]1O [Compound 6h, reference compound]
Response: false

Prompt: Request: CC(=O)NC1C(OCc2cc(F)cc(F)c2)CC(O)(C(=O)O)OC1C(O)C(O)CO (centres unmarked) [Compound 3e]
Response: false

Prompt: Request: CC(=O)NC1C(O)CC(O)(C(=O)O)OC1C(O)C(C)O (centres unmarked) [Compound 8f]
Response: true

###

# Target System: PmSiaT (Proteus mirabilis, UniProt B4EZY7)
# Construct: made in house
# Sequence (B4EZY7 whole entry): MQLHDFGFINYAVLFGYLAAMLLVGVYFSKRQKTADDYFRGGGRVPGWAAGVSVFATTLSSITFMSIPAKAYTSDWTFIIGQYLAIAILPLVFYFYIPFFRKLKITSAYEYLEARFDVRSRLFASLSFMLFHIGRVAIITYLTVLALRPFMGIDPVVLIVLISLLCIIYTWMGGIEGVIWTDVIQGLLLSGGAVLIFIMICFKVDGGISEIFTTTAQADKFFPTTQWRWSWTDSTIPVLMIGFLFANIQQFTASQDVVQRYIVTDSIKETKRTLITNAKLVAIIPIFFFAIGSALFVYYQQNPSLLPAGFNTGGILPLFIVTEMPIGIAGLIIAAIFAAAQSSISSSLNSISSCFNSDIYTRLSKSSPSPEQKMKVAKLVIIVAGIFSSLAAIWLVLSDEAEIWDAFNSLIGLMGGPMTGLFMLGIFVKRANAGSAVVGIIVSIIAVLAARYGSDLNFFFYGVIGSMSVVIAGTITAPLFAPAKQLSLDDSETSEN
# Test Method Notes: nanoDSF thermal shift assay, PmSiaT
# Format: binding
# Particulars: PmSiaT, three experiments, vs Neu5Ac, 1.25 mM; read-out: ΔTm average overall
What ΔTm at 1250 µM was measured for each of the following?
Give a bare numeral; the unit °C is implied.

Prompt: Entry CCC(=O)NC1C(O)CC(O)(C(=O)O)OC1C(O)C(O)CO (centres unmarked) [Compound 6a] : reported ΔTm at 1250 µM = ?
Response: -2.4

Prompt: Request: CC(=O)NC1C(OCc2ccc(Br)cc2)CC(O)(C(=O)O)OC1C(O)C(O)CO (centres unmarked) [Compound 3c]
Response: 7

Prompt: Request: CC(=O)NC1C(OCc2ccccc2)CC(O)(C(=O)O)OC1C(O)C(O)CO (centres unmarked) [Compound 3a]
Response: 5

Prompt: Request: CC(=O)NC1C(O)CC(O)(C(=O)O)OC1C(O)C(O)CCl (centres unmarked) [Compound 8c]
Response: -1.3

Prompt: Request: O=C(NC1C(O)CC(O)(C(=O)O)OC1C(O)C(O)CO)c1ccccc1 (centres unmarked) [Compound 6d]
Response: -3.6

###

# Target System: SaSiaT (Staphylococcus aureus, UniProt A0A0H2XJ46)
# Sequence (A0A0H2XJ46 entry or part of it): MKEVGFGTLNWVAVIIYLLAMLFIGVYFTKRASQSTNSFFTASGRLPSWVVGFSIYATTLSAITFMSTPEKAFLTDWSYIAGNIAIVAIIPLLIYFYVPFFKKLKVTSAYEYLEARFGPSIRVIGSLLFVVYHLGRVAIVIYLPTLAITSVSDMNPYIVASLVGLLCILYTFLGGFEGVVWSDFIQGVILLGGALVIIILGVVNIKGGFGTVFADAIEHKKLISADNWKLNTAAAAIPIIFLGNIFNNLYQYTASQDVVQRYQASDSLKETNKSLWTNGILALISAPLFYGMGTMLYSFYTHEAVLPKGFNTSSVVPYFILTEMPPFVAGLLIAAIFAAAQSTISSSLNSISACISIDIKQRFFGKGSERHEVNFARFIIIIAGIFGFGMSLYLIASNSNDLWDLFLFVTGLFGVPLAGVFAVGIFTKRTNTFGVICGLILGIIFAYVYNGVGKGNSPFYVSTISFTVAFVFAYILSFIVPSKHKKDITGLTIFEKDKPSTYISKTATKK
# Test Method Notes: nanoDSF thermal shift assay, SaSiaT
# Format: binding
# Particulars: SaSiaT Tm, average of experiment 3
What Average 3 was measured for each of the following?
Give a bare numeral; the unit °C is implied.

Prompt: Entry O=C(Cc1ccccc1)NC1C(O)CC(O)(C(=O)O)OC1C(O)C(O)CO (centres unmarked) [Compound 6e] : reported Average 3 = ?
Response: 51.4

Prompt: Request: CC(=O)N[C@H]1[C@H]([C@H](O)[C@H](O)CO)OC(O)(C(=O)O)C[C@@H]1O (some centres unmarked) [Neu5Ac, 5-N-acetyl neuraminic acid, reference compound]
Response: 51.3

Prompt: Request: CC(=O)NC1C(OCc2ccc(F)cc2)CC(O)(C(=O)O)OC1C(O)C(O)CO (centres unmarked) [Compound 3b]
Response: 56.7

Prompt: Request: CC(=O)NC1C(O)CC(O)(C(=O)O)OC1C(O)C(O)CBr (centres unmarked) [Compound 8d]
Response: 51.8

Prompt: Request: CC(=O)N[C@H]1[C@H]([C@H](O)[C@H](O)CO)OC(C(=O)O)=C[C@@H]1O [Compound 9, reference compound]
Response: 45.9

Prompt: Request: CCC(=O)NC1C(O)CC(O)(C(=O)O)OC1C(O)C(O)CO (centres unmarked) [Compound 6a]
Response: 42.2

Prompt: Request: CC(=O)NC1C(O)CC(O)(C(=O)O)OC1C(O)C(O)CCl (centres unmarked) [Compound 8c]
Response: 49.7

Prompt: Request: CC(=O)NC1C(O)CC(O)(C(=O)O)OC1C(O)C(O)CI (centres unmarked) [Compound 8e]
Response: 49.5
